# test_system: Endothelial lipase (EL) (Homo sapiens (Human))
# Sequence (Q9Y5X9 21-500): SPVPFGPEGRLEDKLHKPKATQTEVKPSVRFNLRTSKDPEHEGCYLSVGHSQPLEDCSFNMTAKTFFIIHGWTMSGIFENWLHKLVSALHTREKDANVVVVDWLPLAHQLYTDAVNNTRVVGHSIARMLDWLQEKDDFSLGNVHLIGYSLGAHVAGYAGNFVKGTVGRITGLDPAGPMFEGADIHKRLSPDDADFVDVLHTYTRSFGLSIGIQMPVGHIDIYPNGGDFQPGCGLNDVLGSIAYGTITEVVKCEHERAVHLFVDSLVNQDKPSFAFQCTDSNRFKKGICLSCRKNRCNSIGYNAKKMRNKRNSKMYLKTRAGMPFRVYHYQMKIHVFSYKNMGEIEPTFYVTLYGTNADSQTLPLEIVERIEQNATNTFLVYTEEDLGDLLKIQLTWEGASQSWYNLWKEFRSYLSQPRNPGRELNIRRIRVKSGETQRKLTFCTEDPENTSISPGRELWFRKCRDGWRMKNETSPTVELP
# experiment_description: EL assay: endothelial lipase activity with fluorescent substrate A10070 in DMPG vesicles
# Format: biochemical
# Description: Endothelial lipase (EL) and hepatic lipase (HL) activities were measured using a fluorescent substrate, A10070, (Invitrogen, CA) doped into an artificial vesicle containing DMPG (Avanti Polar Lipids) as the excipient. […] The enzymatic assay was measured using 384-well white Optiplates. […] The reaction rates were measured on a Gemini plate reader with an excitation wavelength of 490 nm and an emission wavelength of 530 nm. […]
endpoint_name: IC50 (nM)
Response body: numeric value in nM, unit text excluded.

Completed entries (count: 3):
CS(=O)(=O)C(C(=O)NCCS(N)(=O)=O)c1nc2cc(-c3ccc(F)nc3F)ccc2s1 (stereo not shown) = 3.5
Cn1nccc1-c1ccc2sc(C(C(=O)NCCS(N)(=O)=O)S(C)(=O)=O)nc2c1 (stereo not shown) = 8.2
NS(=O)(=O)CCNC(=O)C(c1nc2ccc(-c3cccc(C(=O)N4CC[C@H](O)C4)c3)cc2s1)S(=O)(=O)CCC(F)(F)F (stereo partly shown) = 13.1

Next up:
// lookup IC50 | system=Endothelial lipase (EL) (Homo sapiens (Human)) | key= NS(=O)(=O)CCNC(=O)C(c1nc2ccc(-c3cccc(C(=O)N4CC[C@@H](O)C4)c3)cc2s1)S(=O)(=O)CCC(F)(F)F (stereo partly shown)
9.5
